System: BDF1 mice, P388 leukemia ip, median survival T/C
measurement-notes: NCI In Vivo Anticancer Drug Screen. Data for tumor model P388 Leukemia (intraperitoneal) in B6D2F1 (BDF1) mice
recorded-conditions: endpoint: median survival time; dose: 50.0 mg/kg/injection; schedule: Q01DX009 (ip); vehicle: saline with Tween-80; higher = longer survival
Inconclusive results and toxic doses are left out.
This section presents compounds with their documented T/C values.

[
  {
    "compound": "O=C1NN=C(c2ccc(Br)cc2)CS1",
    "T/C": "100 % of control"
  },
  {
    "compound": "C[C@]12C=CC(=O)C=C1CC[C@@H]1[C@@H]2[C@@H](O)C[C@@]2(C)[C@H]1CC[C@]2(O)C(=O)COC(=O)CCC1CCCC1",
    "T/C": "109 % of control"
  },
  {
    "compound": "O=C(O)CCc1nc(-c2ccccc2)c(-c2ccccc2)o1",
    "T/C": "100 % of control"
  },
  {
    "compound": "O=c1[nH]nc(-c2ccccc2)nc1/C(=N\\Nc1ccc([N+](=O)[O-])cc1)c1ccccc1",
    "T/C": "89 % of control"
  },
  {
    "compound": "CC(=O)O.[Pb]",
    "T/C": "90 % of control"
  },
  {
    "compound": "Cc1cc(-c2ccccc2)[s+]s1",
    "T/C": "113 % of control"
  },
  {
    "compound": "CN(C)CC(C(=O)Cc1ccccc1)c1ccccc1 (configuration not stated)",
    "T/C": "102 % of control"
  },
  {
    "compound": "OC(CC1CCCCN1)c1cc2c(Cl)cc(Cl)cc2c2cc(C(F)(F)F)ccc12 (configuration not stated)",
    "T/C": "114 % of control"
  },
  {
    "compound": "CC(C)(C)NCC(O)c1cc(C(F)(F)F)nc2c(C(F)(F)F)cccc12 (configuration not stated)",
    "T/C": "100 % of control"
  },
  {
    "compound": "CCOC(=O)C1CC2(CCC1N)c1ccccc1-c1ccccc12 (configuration not stated)",
    "T/C": "102 % of control"
  },
  {
    "compound": "Nc1ccc(S(=O)(=O)N/N=C/c2ccccc2Cl)cc1",
    "T/C": "92 % of control"
  },
  {
    "compound": "CS(=O)CC(O)(c1ccccc1)c1cccnc1 (configuration not stated)",
    "T/C": "103 % of control"
  }
]

###

This section presents compounds with their documented T/C values.
Tested on: BDF1 mice, P388 leukemia ip, median survival T/C
measurement-notes: NCI In Vivo Anticancer Drug Screen. Data for tumor model P388 Leukemia (intraperitoneal) in B6D2F1 (BDF1) mice
recorded-conditions: endpoint: median survival time; dose: 50.0 mg/kg/injection; schedule: Q01DX009 (ip); vehicle: saline with Tween-80; higher = longer survival
Inconclusive results and toxic doses are left out.
readout-kind: T/C

[
  {
    "compound": "OC1(CSc2ccccc2)CCCCC1",
    "readout-kind": "T/C",
    "result": "111 % of control"
  },
  {
    "compound": "COC(=O)C1(C)CCCC2(C)C1CCC13C=C(C(C)C)C(CC1C(=O)O)CC23 (stereo unspecified)",
    "readout-kind": "T/C",
    "result": "95 % of control"
  },
  {
    "compound": "CCOC(=O)/C(=C(/N)C1OC(COC(c2ccccc2)(c2ccccc2)c2ccccc2)C2OC(C)(C)OC12)C1CC(=O)N(C)C1=O (stereo unspecified)",
    "readout-kind": "T/C",
    "result": "99 % of control"
  },
  {
    "compound": "O=C(NCc1ccco1)C(=O)NCc1ccco1",
    "readout-kind": "T/C",
    "result": "87 % of control"
  },
  {
    "compound": "CN1CSC(=S)N(Cc2ccccc2)C1",
    "readout-kind": "T/C",
    "result": "90 % of control"
  },
  {
    "compound": "Nc1nc2c(ccc3ccccc32)s1",
    "readout-kind": "T/C",
    "result": "117 % of control"
  },
  {
    "compound": "Cc1c2ccnc(-c3ccccc3)c2cc2c1[nH]c1ccccc12",
    "readout-kind": "T/C",
    "result": "102 % of control"
  },
  {
    "compound": "Cc1ccnc(NS(=O)(=O)c2ccc(N=Cc3ccc(N(C)C)cc3)cc2)n1",
    "readout-kind": "T/C",
    "result": "90 % of control"
  },
  {
    "compound": "CCOC(=O)c1cc2ccccc2oc1=O",
    "readout-kind": "T/C",
    "result": "100 % of control"
  },
  {
    "compound": "S=P(NCCS)(N1CC1)N1CC1",
    "readout-kind": "T/C",
    "result": "122 % of control"
  },
  {
    "compound": "O=C1CCCCCCCCCCC1Cc1cc(O)c(CC2CCCCCCCCCCC2=O)cc1O (stereo unspecified)",
    "readout-kind": "T/C",
    "result": "96 % of control"
  }
]
